- Tested on: A2780 cells
- Experimental details: Viability assay in A2780 (Cell Titer Glo)
- Format: cell-based, human
- Condition label: Homo sapiens; A2780 cells; read-out: A2780 Cell prolif. EC50
pEC50: −log10 of the molar value.
pEC50 by entry:

Worked examples, 2 compounds total:
- Chemical structure: "CC(=O)Nc1cn2cc(-c3cnc(N)c(-c4ccc(N5CCOCC5)cc4)c3)ccc2n1"
  pEC50: "> 5.00"
- Chemical structure: "CC(=O)Nc1cn2cc(-c3cnc(N)c(C(F)(F)F)c3)c(F)cc2n1"
  pEC50: "> 4.60"

I looked up CNC(=O)[C@@H]1CCN1C(=O)Nc1cn2cc(-c3cnc(N)c(C(F)(F)F)c3)ccc2n1 and its pEC50 for A2780 cells was > 4.60

I looked up COCCOc1nc(-c2ccc3nc(NC(=O)CN4CCCCC4)cn3c2)cnc1N and its pEC50 for A2780 cells was > 5.00

I looked up Nc1ncc(-c2ccc3nc(NC(=O)CCCN4CCCCC4)cn3n2)cc1C(F)(F)F and its pEC50 for A2780 cells was > 6.00

I looked up CC(=O)Nc1cn2cc(-c3cnc(N)c(C)n3)ccc2n1 and its pEC50 for A2780 cells was > 5.00

# credit: patent US20100075965A1
